ASSAY_EXPLANATION: Particle size measurement of pulverized suspensions (laser diffraction/scattering LA-920)
Type: physicochemical
CONDITION_PARAMETERS: after pulverization (Example 1, ball mill with Kollidon 17PF and sodium lauryl sulfate)
QUANTITY_KIND: D90 (μm)

The examples below pair each entry with its known result.
COMPOUND | RECORDED_RESULT
COc1ccc2c(c1)c(CC(=O)O)c(C)n2C(=O)c1ccc(Cl)cc1 [indomethacin] | 0.50
COc1cc(NS(=O)(=O)c2ccc(N)cc2)nc(OC)n1 [sulfadimethoxine] | 0.65
CCC1=C(C)CN(C(=O)NCCc2ccc(S(=O)(=O)NC(=O)N[C@H]3CC[C@H](C)CC3)cc2)C1=O [glimepiride] | 0.55
FC(F)(F)c1ccc(/C=C/c2nc(COc3ccc(CCCCn4ccnn4)cc3)co2)cc1 [compound A] | 0.68

[1] COC1=CC(=O)C[C@@H](C)[C@]12Oc1c(Cl)c(OC)cc(OC)c1C2=O [griseofluvin]
[2] CC(C(=O)O)c1cccc(C(=O)c2ccccc2)c1 (stereo not drawn) [ketoprofen, Ketoprofen]
// max by D90 over [ 1 , 2 ] Your choice should be expressed through its label.
2

====

ASSAY_EXPLANATION: Particle size measurement of pulverized suspensions (laser diffraction/scattering LA-920)
Assay type: physicochemical
CONDITION_PARAMETERS: before pulverization; substances used in Example 1
QUANTITY_KIND: particle size: D50 (μm)

COMPOUND | RESULT_UNIT | RECORDED_RESULT
FC(F)(F)c1ccc(/C=C/c2nc(COc3ccc(CCCCn4ccnn4)cc3)co2)cc1 | μm | 5.68

[A] COC1=CC(=O)C[C@@H](C)[C@]12Oc1c(Cl)c(OC)cc(OC)c1C2=O
[B] CCC1=C(C)CN(C(=O)NCCc2ccc(S(=O)(=O)NC(=O)N[C@H]3CC[C@H](C)CC3)cc2)C1=O [glimepiride]
[C] COc1ccc2c(c1)c(CC(=O)O)c(C)n2C(=O)c1ccc(Cl)cc1
Hey, quick one: sort these by particle size: D50, low to high? Give the labels in the order requested.
B, A, C
(B: 1.67 μm, A: 6.35 μm, C: 9.61 μm)

====

ASSAY_EXPLANATION: Particle size measurement of pulverized suspensions (laser diffraction/scattering LA-920)
Format: physicochemical
CONDITION_PARAMETERS: after pulverization (Example 1, ball mill with Kollidon 17PF and sodium lauryl sulfate)
QUANTITY_KIND: particle size: D50 (μm)

Please review the following examples before continuing.
MOLECULE | QUANTITY_KIND | RECORDED_RESULT
COc1cc(NS(=O)(=O)c2ccc(N)cc2)nc(OC)n1 | particle size: D50 | 0.44
CCC1=C(C)CN(C(=O)NCCc2ccc(S(=O)(=O)NC(=O)N[C@H]3CC[C@H](C)CC3)cc2)C1=O [glimepiride] | particle size: D50 | 0.39
FC(F)(F)c1ccc(/C=C/c2nc(COc3ccc(CCCCn4ccnn4)cc3)co2)cc1 | particle size: D50 | 0.42
COc1ccc2c(c1)c(CC(=O)O)c(C)n2C(=O)c1ccc(Cl)cc1 | particle size: D50 | 0.36

[A] COC1=CC(=O)C[C@@H](C)[C@]12Oc1c(Cl)c(OC)cc(OC)c1C2=O
[B] CC(C(=O)O)c1cccc(C(=O)c2ccccc2)c1 (stereo not drawn)
I'm curious whether A or B has the smaller particle size: D50 number. Which is it? When you have decided, please share the label of that item.
A
